Assay: Maxima of UV-A and UV-B absorption of quinoxaline derivatives in 2-propanol
Assay type: physicochemical
Conditions: 1 mg of substance per 100 ml of solvent, wavelength of UV-B maximum
REPORTED ENDPOINT: UV-B (280 320 nm) λ [nm]
Answers are plain numbers, in nm.

The following compounds have reported results that may help.
COc1cc(Nc2cnc3ccccc3n2)c(C(=O)O)cc1OC ... 300.1
CCOC(=O)c1nc2ccccc2[nH]c1=O ... 290.0

Please go through the list and note UV-B (280 320 nm) λ [nm] for each compound.
1. CCOC(=O)c1nc2ccccc2nc1Nc1cc(OC)c(OC)cc1C(=O)O
2. COc1cc(Nc2nc3ccccc3nc2-c2ccccc2)c(C(=O)O)cc1OC
3. CC(C)OC(=O)c1ccc(Nc2nc3ccccc3nc2-c2ccccc2)cc1
4. CCOC(=O)c1nc2ccccc2nc1Nc1cc(F)c(F)cc1C(=O)O

1. 295.0
2. 285.6
3. 305.3
4. 287.0
